Reference source for all entries: ChEMBL document CHEMBL1148950

- System: Radical scavenging activity
- ASSAY TEXT: Antioxidant activity assessed as DPPH radical scavenging activity
- Format: functional
Can you tell me IC50 for the items I'm about to list?
Give bare numbers, in µM.

Known IC50 results, listed for orientation:
COMPOUND	EXPERIMENTAL SYSTEM	IC50 / µM
C=CC1C(Cc2nc(C(=O)O)cc3c2[nH]c2ccc(O)cc23)C(C(=O)OC)=CO[C@H]1O[C@@H]1O[C@H](CO)[C@@H](O)[C@H](O)[C@H]1O (stereo partly specified) [CORDIFOLINE]	Radical scavenging activity	18.3
C[C@@H]1O[C@@H](OC[C@H]2O[C@@H](Oc3c(-c4ccc(O)c(O)c4)oc4cc(O)cc(O)c4c3=O)[C@H](O)[C@@H](O)[C@@H]2O)[C@H](O)[C@H](O)[C@H]1O [RUTIN]	Radical scavenging activity	12.3
C=C[C@H]1[C@H](O[C@H]2O[C@H](CO)[C@@H](O)[C@H](O)[C@H]2O)OC=C(C(=O)OC)[C@H]1Cc1nc(C(=O)O)cc2c1[nH]c1ccccc12 [DESOXYCORDIFOLINE]	Radical scavenging activity	49.9
C=C[C@H]1[C@H](O[C@@H]2O[C@H](CO)[C@@H](O)[C@H](O)[C@H]2O)OC=C(C(=O)OC)[C@H]1C[C@@H]1NCCc2c1[nH]c1ccccc21 [STRICTOSIDINE]	Radical scavenging activity	56
C=CC1C(CC2=NCCc3c2[nH]c2ccccc32)C(C(=O)O)=CO[C@H]1O[C@@H]1O[C@H](CO)[C@@H](O)[C@H](O)[C@H]1O (stereo partly specified)	Radical scavenging activity	52.3

Lookup: Entry Cc1nc(C(=O)O)cc2c1[nH]c1ccccc12 [HARMAN-3-CARBOXYLIC ACID] , system Radical scavenging activity: what IC50 was measured?
Found: 45.5

----------
Can you tell me IC50 for the items I'm about to list?
- Test system: Radical scavenging activity
- ASSAY TEXT: Antioxidant activity assessed as DPPH radical scavenging activity
- Assay type: functional
Kindly report the value followed by its unit.

Known IC50 results, listed for orientation:
MOLECULE	IC50
C=CC1C(CC2=NCCc3c2[nH]c2ccccc32)C(C(=O)OC)=CO[C@H]1O[C@@H]1O[C@H](CO)[C@@H](O)[C@H](O)[C@H]1O (some centres undefined)	55.1 µM
C=CC1C(C[C@@H]2NCCc3c2[nH]c2ccccc32)C(C(=O)O)=CO[C@H]1O[C@@H]1O[C@H](CO)[C@@H](O)[C@H](O)[C@H]1O (some centres undefined) [STRICTOSIDINIC ACID]	49.7 µM
C=C[C@H]1[C@@H](/C(=C/O)C(=O)OC)C[C@H]2c3[nH]c4ccccc4c3CCN2[C@H]1O[C@H]1O[C@@H](CO)[C@H](O)[C@@H](O)[C@@H]1O [TURBINATINE]	50.9 µM

Attention now turns to another entry.
Lookup: What measured IC50 goes with C=CC1C(C[C@@H]2NC(C(=O)O)Cc3c2[nH]c2ccccc32)C(C(=O)OC)=CO[C@H]1O[C@@H]1O[C@H](CO)[C@@H](O)[C@H](O)[C@H]1O (some centres undefined) ?
Found: 47.1 µM
